# Tested on: P12-Ichikawa
# procedure-text: cell viability relative to DMSO control; higher = less cytotoxic
# condition-label: HPLM + 10% dialyzed FBS; 48 h; 0.00234 µM
# maps each entry to its cell viability
Respond with the bare value in %.

See these solved cases before continuing.
{"compound": "CC(C)[C@H]1C(=O)N[C@H](CO)Cc2c[nH]c3cccc(c23)N1C", "tgt": "P12-Ichikawa", "observed-measurement": 96}
{"compound": "COC(=O)CCC1=C(C)C2=CC3=NC(=CC4=C(C)C(=C([NH]4)C=C\\5N=C(C=C1[NH]2)\\C(=C5C)CCC(O)=O)C=C)\\C6=C\\C=C(/[C@@H](C(=O)OC)[C@@]36C)C(=O)OC", "tgt": "P12-Ichikawa", "observed-measurement": 103}
{"compound": "Nc1nccc(-c2ccc3noc(-c4ccc(Cl)cc4)c3c2)n1", "tgt": "P12-Ichikawa", "observed-measurement": 124}
{"compound": "CC[C@H](C)C(=O)O[C@H]1C[C@@H](C)\\C=C2\\C=C/[C@H](C)[C@H](CC[C@@H]3C[C@@H](O)CC(=O)O3)[C@@H]12", "tgt": "P12-Ichikawa", "observed-measurement": 94.1}
{"compound": "CCOc1ccccc1N/N=C1/C(=O)N(c2nc(-c3ccccc3)cs2)N=C1C", "tgt": "P12-Ichikawa", "observed-measurement": 114}
{"compound": "COc1cc(N2CCN(C)CC2)ccc1Nc1nc(N)c(C(=O)c2c(Cl)cccc2Cl)s1", "tgt": "P12-Ichikawa", "observed-measurement": 118}

Please look at the following compound next.
Prompt: Recorded cell viability for CC(=O)OCC(=O)[C@@]1(O)CC[C@H]2[C@@H]3CCC/4=C/C(=O)/C=C\[C@]4(C)[C@H]3[C@@H](O)C[C@]12C , please?
Response: 128

###

# Test system: SEM cells
# procedure-text: cell viability relative to DMSO control; higher = less cytotoxic
# condition-label: RPMI 5 mM glucose + 10% dialyzed FBS; 48 h; 5.12 µM
measurement-label: cell viability (%)
Respond with the bare value in %.

{"molecule": "COc1cccc(OC)c1-c1cc(C(=O)NC2(C(=O)O)C3CC4CC(C3)CC2C4)nn1-c1ccnc2cc(Cl)ccc12 (configuration not stated)", "tgt": "SEM cells", "uom": "%", "cell viability": 116}
{"molecule": "O=C(O)c1cccc(-c2noc(-c3ccccc3F)n2)c1", "tgt": "SEM cells", "uom": "%", "cell viability": 108}
{"molecule": "C[C@@H]1CC[C@@]2(CC[C@]3(C)\\C(=C/C[C@@H]4[C@@]5(C)C[C@@H](O)[C@H](O)[C@@](C)(CO)[C@@H]5CC[C@@]34C)[C@@H]2[C@H]1C)C(O)=O", "tgt": "SEM cells", "uom": "%", "cell viability": 229}
{"molecule": "CN(C)c1ccc(-c2nc3c(N4CCN(CC(=O)Nc5nccs5)CC4)c(Cl)cnc3[nH]2)cc1", "tgt": "SEM cells", "uom": "%", "cell viability": 97.9}
{"molecule": "CC(C)[C@H](C(=O)Nc1ccc(C(=O)NO)cc1)c1ccccc1", "tgt": "SEM cells", "uom": "%", "cell viability": 8.81}
{"molecule": "OC(=O)CNC(=O)\\C1=C(/O)C2=CC=CC=C2N(CC3=CC=CC=C3)C1=O", "tgt": "SEM cells", "uom": "%", "cell viability": 105}

Please look at the following molecule next.
Prompt: Recorded cell viability for CC1Cc2ccccc2N1NC(=O)c1ccc(Cl)c([S+](N)(=O)[O-])c1 (configuration not stated) , please?
Response: 113

###

# Test system: P12-Ichikawa
# procedure-text: cell viability relative to DMSO control; higher = less cytotoxic
# condition-label: RPMI 5 mM glucose + 10% FBS; 48 h; 0.569 µM
measurement-label: cell viability (%)
Respond with the bare value in %.

See these solved cases before continuing.
{"compound": "CN(C)c1ccc(-c2nc3c(N4CCN(CC(=O)Nc5nccs5)CC4)c(Cl)cnc3[nH]2)cc1", "cell viability [%]": 111}
{"compound": "COC(=O)[C@H](Cc1ccccc1)NC(=O)[C@@H](N)CC(=O)O", "cell viability [%]": 107}
{"compound": "C#CCC(Cc1cnc2nc(N)nc(N)c2n1)c1ccc(C(=O)N[C@@H](CCC(=O)O)C(=O)O)cc1 (stereo partly drawn)", "cell viability [%]": 29.9}
{"compound": "CCOc1ccccc1N/N=C1/C(=O)N(c2nc(-c3ccccc3)cs2)N=C1C", "cell viability [%]": 112}
{"compound": "COCCCC/C(=N\\OCCN)c1ccc(C(F)(F)F)cc1", "cell viability [%]": 62.2}
{"compound": "CC(C)(C)[C@]1(O)C[C@@H]2OC(=O)C[C@@]23C(=O)O[C@@H]2OC(=O)[C@H](O)C213 (stereo partly drawn)", "cell viability [%]": 118}
{"compound": "Cc1nc(-c2ccc(-c3ccc(C(=O)N4CCc5cc6c(cc54)C4(CCN(C)CC4)CO6)cc3)c(C)c2)no1", "cell viability [%]": 123}
{"compound": "OC[C@H]1OC(O)C[C@@H](O)[C@@H]1O (stereo partly drawn)", "cell viability [%]": 131}
{"compound": "CC(C)(Sc1cc(C(C)(C)C)c(O)c(C(C)(C)C)c1)Sc1cc(C(C)(C)C)c(O)c(C(C)(C)C)c1", "cell viability [%]": 93.7}
{"compound": "CC[C@H](C)C(=O)O[C@H]1C[C@@H](C)\\C=C2\\C=C/[C@H](C)[C@H](CC[C@@H]3C[C@@H](O)CC(=O)O3)[C@@H]12", "cell viability [%]": 89.6}

Prompt: Recorded cell viability for CCn1c(C(=O)N(C2CC2)C2CC2)cc2c3c(ncn3C)c(Nc3cc(C)n(C)n3)nc21 , please?
Response: 111

Prompt: Recorded cell viability for CC(C)[C@H]1C(=O)N[C@H](CO)Cc2c[nH]c3cccc(c23)N1C , please?
Response: 76.9

Prompt: Recorded cell viability for CC1(C)CCC(C)(C)c2cc(NC(=O)c3ccc(C(=O)O)cc3)ccc21 , please?
Response: 104

###

# Tested on: SEM cells
# procedure-text: cell viability relative to DMSO control; higher = less cytotoxic
# condition-label: RPMI 5 mM glucose + 10% FBS; 48 h; 15.4 µM
# maps each entry to its cell viability
# number then unit; no other words

See these solved cases before continuing.
{"molecule": "O=C(Nc1ccccc1)Nc1ccc(-c2ccc(C(=O)[C@@H]3CCC[C@H]3C(=O)O)cc2)cc1", "cell viability": "91.2%"}
{"molecule": "O=C1\\C=C(OC2=C(C=CC=C12)C3=CC=CC4=C3SC5=C4C=CC=C5)\\N6CCOCC6", "cell viability": "60.2%"}
{"molecule": "CC1(C)[C@@H](O)CC[C@@]2(C)[C@H]1CC[C@]3(C)[C@@H]2C(=O)\\C=C/4[C@@H]5C[C@](C)(CC[C@]5(C)CC[C@@]34C)C(O)=O", "cell viability": "101%"}

Prompt: Recorded cell viability for CN(C)c1ccc(-c2nc3c(N4CCN(CC(=O)Nc5nccs5)CC4)c(Cl)cnc3[nH]2)cc1 , please?
Response: 70.3%

Prompt: Recorded cell viability for C/C=C(\C)C(=O)N[C@@H](c1ccccc1)[C@@H](O)C(=O)O[C@H]1C[C@@]2(O)[C@@H](OC(=O)c3ccccc3)[C@@H]3[C@]4(OC(C)=O)CO[C@@H]4C[C@H](O)[C@@]3(C)C(=O)[C@H](OC(C)=O)C(=C1C)C2(C)C , please?
Response: 12.5%

Prompt: Recorded cell viability for COc1cc2cc(c1Cl)N(C)C(=O)C[C@H](OC(=O)C(C)C)[C@]1(C)O[C@@H]1[C@H](C)[C@@H]1C[C@@](O)(NC(=O)O1)[C@H](OC)/C=C/C=C(\C)C2 , please?
Response: 4.03%

Prompt: Recorded cell viability for Clc1ccc(CCC(Cn2ccnc2)Sc2c(Cl)cccc2Cl)cc1 (stereo not drawn) , please?
Response: 86.1%

Prompt: Recorded cell viability for CCOC(=O)c1c(CSc2ccccc2)n(C)c2cc(Br)c(O)c(CN(C)C)c12 , please?
Response: 101%

###

# Tested on: NOMO1
# procedure-text: cell viability relative to DMSO control; higher = less cytotoxic
# condition-label: RPMI 5 mM glucose + 10% FBS; 48 h; 5.12 µM
# maps each entry to its cell viability
Respond with the bare value in %.

See these solved cases before continuing.
{"molecule": "CO[C@H]1C[C@@H]2CC[C@@H](C)[C@@](O)(O2)C(=O)C(=O)N2CCCC[C@H]2C(=O)O[C@H]([C@@H](C)C[C@@H]2CC[C@@H](O)[C@H](OC)C2)CC(=O)[C@H](C)/C=C(\\C)[C@@H](O)[C@@H](OC)C(=O)[C@H](C)C[C@H](C)/C=C/C=C/C=C/1C", "uom": "%", "cell viability": 97.3}
{"molecule": "Clc1ccc(CCC(Cn2ccnc2)Sc2c(Cl)cccc2Cl)cc1 (centres undefined)", "uom": "%", "cell viability": 85.5}
{"molecule": "CCC(=O)O[C@@]1(CC[C@H]2[C@@H]3CCC/4=C/C(=O)CC[C@]4(C)[C@H]3CC[C@]12C)C(=O)CO", "uom": "%", "cell viability": 104}

Please look at the following molecule next.
Prompt: Recorded cell viability for Cc1cccc(-c2[nH]c(C(C)(C)C)nc2-c2ccc3nccnc3c2)n1 , please?
Response: 106
